Reference source: patent US8075899B1

- assayed system: I-Ag7 protein (mouse MHC class II molecule of the NOD mouse), affinity-purified from 4G4.7 B cell hybridoma cells (mouse (NOD))
- procedure summary: competition ELISA on purified I-Ag7 against ~200 nM biotinylated HEL 10-23
pIC50: −log10 of the molar value.
endpoint: pIC50

TSIASLYQLENYAN [human proinsulin peptide (73-86), cysteines substituted by alanine]; 5.00

a. FVNQHLAGSHLVEAL [human proinsulin peptide (1-15), cysteines substituted by alanine]
b. GAGSLQPLALEGSLQ [human proinsulin peptide (49-63)]
Prompt: Select one. Lower pIC50: a or b Record your answer as the label of the chosen record.
Response: a
(a: 5.15, b: 6.00)

A. HLAGSHLVEALYLVA [human proinsulin peptide (5-19), cysteines substituted by alanine]
B. ERGFFYTPKTRREAE [human proinsulin peptide (21-35)]
Prompt: Kindly identify which of A and B has the larger recorded pIC50 value. Answer with the label corresponding to your selection.
Response: B
